Biological target: T1, PSMA Fab (006 PSMA Fab) (biotinylated (site not stated))
T1 construct: also called Anti-PSMA Fab; anti-PSMA Fab
Experiment: clonal phage ELISA on biotinylated PSMA Fab captured on neutravidin, anti-M13-HRP detection;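 note: crude clonal phage supernatants added to wells preincubated with PSMA antigen in blocking buffer or with blocking buffer alone, brief binding period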
Where no end group is shown, it is not given here.
measureName: Phage binding ELISA signal, Anti-PSMA Fab
Give a plain numeric answer without units written out.

MHFHCKPAWMCQGL (cysteine pairing not given here; also: fused to pIII of bacteriophage, not shown: fused to pIII of the bacteriophage) [Phage-3340] = 1.83

Quick one: give measured Phage binding ELISA signal, Anti-PSMA Fab for MEPVCKPKWMCQGF (cysteine pairing not given here; also: fused to pIII of bacteriophage, not shown: fused to pIII of the bacteriophage) [Phage-3342]
1.83

Fill in reported Phage binding ELISA signal, Anti-PSMA Fab for this entry: TAPMCKPEWMCVAL (cysteine pairing not given here; also: fused to pIII of bacteriophage, not shown: fused to pIII of the bacteriophage) [Phage-3343]
1.83

Please report the measured Phage binding ELISA signal, Anti-PSMA Fab for SEYRCVPNWMCSGF (cysteine pairing not given here; also: fused to pIII of bacteriophage, not shown: fused to pIII of the bacteriophage) [Phage-3346]
1.83

# return recorded Phage binding ELISA signal, Anti-PSMA Fab for entry QSPMCKPDWMCLGF (cysteine pairing not given here; also: fused to pIII of bacteriophage, not shown: fused to pIII of the bacteriophage) [Phage-3347]
1.83

// fetch Phage binding ELISA signal, Anti-PSMA Fab given entry HIKECTPRWMCVGF (cysteine pairing not given here; also: fused to pIII of bacteriophage, not shown: fused to pIII of the bacteriophage) [Phage-3349]
1.82

Hey, just so you know, these numbers are from patent US20260242478A1.
